# CC50 annotations
# protocol-details: Cytotoxicity against human HEL cells
# Assay type: cell-based

>>> df
                           structure_smiles  recorded_value
0  C/C=C/c1ccccc1-c1cc2cn([C@H]3C[C@H](O)[C@@H](CO)O3)c(=O)nc2o1          103 µM
1  CCC/C=C/c1ccc(-c2cc3cn([C@H]4C[C@H](O)[C@@H](CO)O4)c(=O)nc3o2)cc1        > 200 µM
2  CC/C=C/c1ccc(-c2cc3cn([C@H]4C[C@H](O)[C@@H](CO)O4)c(=O)nc3o2)cc1        > 200 µM

Below: the item to evaluate.
Qu. // Input: `C/C=C/c1ccc(-c2cc3cn([C@H]4C[C@H](O)[C@@H](CO)O4)c(=O)nc3o2)cc1` . Output its CC50 only.
Ans. > 200 µM
